Recorded values, source patent US6355799B1.

Test system: lambsquarters (Chenopodium album, CHEAL)
Measurement description: Pre-emerge test, greenhouse herbicide activity screening
Assay type: in vivo
Condition context: pre-emerge, 63 g ai/ha, 14 days after application, scale 0-100

Structure as smiles | phytotoxicity rating CHEAL
COc1c(Cl)cc(F)c(-n2c(=O)cc(C(F)(F)F)n(N)c2=O)c1NC(=O)c1ccc2ccccc2c1 | 100
COc1cc2ccccc2cc1C(=O)Nc1c(OC)c(Cl)cc(F)c1-n1c(=O)cc(C(F)(F)F)n(C)c1=O | 95
COc1c(Br)cc(F)c(-n2c(=O)cc(C(F)(F)F)n(C)c2=O)c1NC(=O)C=Cc1ccccc1 | 100
Cn1c(C(F)(F)F)cc(=O)n(-c2c(F)cc(OC(F)F)cc2NC(=O)c2ccc3ccccc3c2)c1=O | 100
